Molecular target: SARS-CoV-2刺突蛋白RBD区重组蛋白 (SARS-CoV-2, UniProt P0DTC2 319-541)
Experiment: SPR, BIAcore T-200, RBD amine-coupled on CM5 chip, VHH in flow
Binary call on Kd with cut-off 3 nM: strictly below means T, and equality or higher means F.

INSERT INTO results (binder, cat) VALUES
  ('单域抗体5F8 (VHH) VHH: QVQLVESGGGLVQPGGSLRLSCAASGRQAVVFGWFRQAPGKGLEAVAAIHVPAKNRYYADSVKGRFTISRDNSKNTLYLQMNSLRAEDTAVYYCAAHYEFNDFVWQGYSSDYWGQGTQVTVSS', 'T'),
  ('单域抗体1E2 (VHH) VHH: QVQLVESGGGLVQPGGSLRLSCAASGADAFVIIGGWFRQAPGKGLEAVAAIAWTDQHEYYADSVKGRFTISRDNSKNTLYLQMNSLRAEDTAVYYCAAQDSAYIKSKGSRAYEYWGQGTQVTVSS', 'F'),
  ('单域抗体2F2 (VHH) VHH: QVQLVESGGGLVQPGGSLRLSCAASGLAQSKWAYGWFRQAPGKGLEAVAAIDVATGPWYYADSVKGRFTISRDNSKNTLYLQMNSLRAEDTAVYYCAAHHIPTKHPAFPDFRDYWGQGTQVTVSS', 'T'),
  ('单域抗体3F11 (VHH) VHH: QVQLVESGGGLVQPGGSLRLSCAASGGNAAERMAGWFRQAPGKGLEAVAAIYYAKFGPYYADSVKGRFTISRDNSKNTLYLQMNSLRAEDTAVYYCAAEAFVQSPYSGSHTTKYWGQGTQVTVSS', 'F'),
  ('单域抗体4D8 (VHH) VHH: QVQLVESGGGLVQPGGSLRLSCAASGNIDSTRYHGWFRQAPGKGLEAVAAIKGVWPEDYYADSVKGRFTISRDNSKNTLYLQMNSLRAEDTAVYYCAADQYEWWVPGEVGPYLYWGQGTQVTVSS', 'F');
